Values were extracted from patent US10844064B2.

What EC50 was measured for each of the following?
Biological target: sGC enzyme (Homo sapiens, UniProt Q02108+Q02153)
Construct: host or cells: HEK293 expressing GloSensor 40F cGMP
Sequence (Q02108 whole entry): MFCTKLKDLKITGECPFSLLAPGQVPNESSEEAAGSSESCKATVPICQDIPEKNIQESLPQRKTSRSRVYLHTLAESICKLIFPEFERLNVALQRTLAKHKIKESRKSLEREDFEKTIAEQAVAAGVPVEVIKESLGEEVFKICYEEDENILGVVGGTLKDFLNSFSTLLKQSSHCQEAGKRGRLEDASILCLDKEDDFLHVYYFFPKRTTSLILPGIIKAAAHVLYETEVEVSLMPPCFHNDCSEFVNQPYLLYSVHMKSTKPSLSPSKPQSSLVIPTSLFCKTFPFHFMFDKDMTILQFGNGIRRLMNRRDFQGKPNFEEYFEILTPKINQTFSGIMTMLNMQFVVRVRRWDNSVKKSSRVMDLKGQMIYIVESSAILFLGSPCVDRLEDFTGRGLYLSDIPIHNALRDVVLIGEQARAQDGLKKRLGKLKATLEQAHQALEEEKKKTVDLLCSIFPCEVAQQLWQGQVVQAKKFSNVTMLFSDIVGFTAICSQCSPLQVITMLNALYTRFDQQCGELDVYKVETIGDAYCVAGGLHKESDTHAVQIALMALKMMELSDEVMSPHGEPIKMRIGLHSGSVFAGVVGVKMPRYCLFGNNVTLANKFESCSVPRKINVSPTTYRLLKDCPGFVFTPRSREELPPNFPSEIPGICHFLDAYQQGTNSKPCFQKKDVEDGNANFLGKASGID
Sequence (Q02153 whole entry): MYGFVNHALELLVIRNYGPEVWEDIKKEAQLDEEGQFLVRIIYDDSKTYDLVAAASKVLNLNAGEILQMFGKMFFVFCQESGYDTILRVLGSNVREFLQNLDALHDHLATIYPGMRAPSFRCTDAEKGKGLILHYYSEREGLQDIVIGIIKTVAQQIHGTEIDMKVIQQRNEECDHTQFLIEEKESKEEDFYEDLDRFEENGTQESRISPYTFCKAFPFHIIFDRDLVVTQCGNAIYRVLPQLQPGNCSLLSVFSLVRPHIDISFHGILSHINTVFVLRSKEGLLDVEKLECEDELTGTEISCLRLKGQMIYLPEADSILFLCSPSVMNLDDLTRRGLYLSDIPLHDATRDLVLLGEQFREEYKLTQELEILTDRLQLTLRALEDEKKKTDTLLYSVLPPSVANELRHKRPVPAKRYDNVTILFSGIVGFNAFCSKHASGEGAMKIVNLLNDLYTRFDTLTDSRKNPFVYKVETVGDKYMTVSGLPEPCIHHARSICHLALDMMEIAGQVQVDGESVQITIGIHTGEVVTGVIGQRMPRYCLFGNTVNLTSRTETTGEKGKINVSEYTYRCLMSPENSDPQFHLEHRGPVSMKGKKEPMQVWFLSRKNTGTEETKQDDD
Assay: cGMP GloSensor cell-based assay, 384-well format (Example 2B)
Settings: HEK293 GloSensor 40F cGMP cells, 10 μM DETA-NONOate; 50% of high control response (Compound Y); read-out: sGC_HEK_GloSensor EC50/IC50 Abs (Norm) (nM) Binned
Procedure: Data were normalized to a high control using the following equation: 100*(Sample—Low Control)/(High Control—Low Control), where the low control is the average of 16 samples treated with 1% DMSO, and the high control is the average of 16 samples treated with 30 μM of Compound Y depicted below. […] For the kinetics studies, luminescense was measured right away for 0.2 sec per well with Envision (Perkin Elmer model No). […]

Sample records with EC50:
>>> value_reported("COc1cc(-c2ncc3c(n2)NC(=O)C3(C)C)nn1Cc1cccc(F)c1")
"< 100 nM"
>>> value_reported("Cc1nc(-c2ccn(Cc3ccccc3F)n2)nc2c1C(C)(C)C(=O)N2")
"> 1000 nM"

Record EC50 per entry; entries follow.
1. CC1(C)C(=O)Nc2nc(-c3cc(OC(F)F)n(Cc4ccccc4F)n3)ncc21
2. CC1(C)C(=O)Nc2nc(-c3cc(O)n(Cc4ccccc4F)n3)ncc21
3. CC(C)Oc1cc(-c2ncc3c(n2)NC(=O)C3(C)C)nn1Cc1ccccc1F
4. Cn1cc(-c2ncc3c(n2)NC(=O)C3(C)C)nc1Cc1ccccc1F

[reply]
1: 100 to 1000 nM; 2: > 1000 nM; 3: > 1000 nM; 4: > 1000 nM

Record EC50 per entry; entries follow.
1. COc1cc(-c2ncc3c(n2)N(C)C(=O)C3(C)C)nn1Cc1ccccc1F
2. Cc1nc(-c2nc(O)c3c(n2)NC(=O)C3(C)C)nn1Cc1ccccc1F

[reply]
["> 1000 nM", "> 1000 nM"]

Record EC50 per entry; entries follow.
1. COc1cc(-c2ncc3c(n2)NC(=O)C3(C)C)nn1Cc1ccc(C)cc1F
2. COc1cc(-c2nc(N)c3c(n2)NC(=O)C3(C)C)nn1Cc1ccccc1
3. COc1cc(-c2nc(N)c3c(n2)NC(=O)C3(C)C)nn1Cc1cncnc1
4. COc1cc(-c2ncc3c(n2)NC(=O)C3(C)C)nn1Cc1cccc(Cl)c1

[reply]
["< 100 nM", "< 100 nM", "> 1000 nM", "100 to 1000 nM"]

Record EC50 per entry; entries follow.
1. COc1c(Br)c(-c2ncc3c(n2)NC(=O)C3(C)C)nn1Cc1ccccc1F
2. Cc1cn(-c2ncc3c(n2)NC(=O)C3(C)C)nc1Cc1ccccc1F
3. CC1(C)C(=O)Nc2nc(-n3cc(O)c(Cc4ccccc4F)n3)ncc21

[reply]
< 100 nM
100 to 1000 nM
> 1000 nM

====

Molecular target: sGC enzyme (Homo sapiens, UniProt Q02108+Q02153)
Construct: host or cells: HEK293 expressing GloSensor 40F cGMP
Assay: cGMP GloSensor cell-based assay, 384-well format (Example 2B)
Conditions: HEK293 GloSensor 40F cGMP cells, 10 μM DETA-NONOate; 50% of high control response (Compound Y); read-out: sGC_HEK_GloSensor EC50/IC50 Abs (Norm) (nM) Binned
What EC50 was measured for each of the following?

>>> value_reported("Cn1c(=O)[nH]c2nc(-c3cc(-c4ccon4)n(Cc4ccccc4F)n3)ncc21")
"> 30000 nM"
>>> value_reported("Cc1nc(-c2ncc3c(n2)NC(=O)C3(C)C)nn1Cc1ccccc1F")
"> 1000 nM"
>>> value_reported("COc1cc(-c2ncc3c(n2)NC(=O)C3(C)C)nn1Cc1ccccc1")
"100 to 1000 nM"
>>> value_reported("CC(=O)c1cc(-c2ncc3c(n2)NC(=O)C3(C)C)nn1Cc1ccccc1F")
"100 to 1000 nM"
>>> value_reported("CCOc1cc(-c2ncc3c(n2)NC(=O)C3(C)C)nn1Cc1ccccc1F")
"> 1000 nM"
>>> value_reported("COc1cc(-c2ncc3c(n2)N(C(=O)OC(C)(C)C)C(=O)C3(C)C)nn1Cc1ccccc1")
"100 to 1000 nM"

Record EC50 per entry; entries follow.
1. CC1(C)C(=O)Nc2nc(-n3cc(-c4ccon4)c(Cc4ccccc4F)n3)ncc21
2. COc1cn(-c2ncc3c(n2)NC(=O)C3(C)C)nc1Cc1ccccc1F
3. CC1(C)C(=O)Nc2nc(-c3cc(C#N)n(Cc4ccccc4F)n3)nnc21
4. Cc1cn(-c2nc(O)c3c(n2)NC(=O)C3(C)C)nc1Cc1ccccc1F
5. CC1(C)C(=O)Nc2nnc(-c3cc(-c4ccon4)n(Cc4ccccc4F)n3)nc21
6. COc1cc(-c2ncc3c(n2)NC(=O)C3(C)C)nn1Cc1ccc(C)cc1
7. COc1cc(-c2ncc3c(n2)NC(=O)C3(C)C)nn1Cc1ccccc1F
8. COc1cc(-c2ncc3c(n2)NC(=O)C3(C)C)nn1Cc1cccc(C#N)c1

[reply]
["100 to 1000 nM", "< 100 nM", "100 to 1000 nM", "100 to 1000 nM", "> 1000 nM", "< 100 nM", "100 to 1000 nM", "100 to 1000 nM"]

Record EC50 per entry; entries follow.
1. COc1c(Cl)c(-c2ncc3c(n2)NC(=O)C3(C)C)nn1Cc1ccccc1F
2. CC1(C)C(=O)Nc2nc(-c3ccn(Cc4ccccc4F)n3)ncc21
3. COc1cc(-c2ncc3c(n2)NC(=O)C3(C)C)nn1Cc1ccccc1Cl

[reply]
["< 100 nM", "100 to 1000 nM", "100 to 1000 nM"]
